Target or system Cyclin-dependent kinase-like 1 (Homo sapiens): recorded ΔTm listed per item.

COMPOUND	ΔTm (°C)
COC1=C2C[C@@H](C)C[C@H](OC)[C@H](O)[C@@H](C)/C=C(\C)[C@H](OC(N)=O)[C@@H](OC)/C=C\C=C(/C)C(=O)NC(=CC1=O)C2=O	-0.5
O=C1Nc2ccc(S(=O)(=O)O)cc2/C1=C1/Nc2ccccc2/C1=N\O	3.1
N#C/C(=C1/Nc2ccccc2S1)c1ccnc(NCCc2cccnc2)n1	3.1
O=[N+]([O-])c1ccc(-c2nc(-c3ccc(F)cc3)c(-c3ccncc3)[nH]2)cc1	0
CC(C)n1cnc2c(NCc3ccccc3)nc(NCCCO)nc21	-0.1
O=C1NC(=O)C(c2cn(CCCn3ccnc3)c3ccccc23)=C1Nc1ccccc1	0.3
Cn1cnc2c(NCc3ccccc3)nc(NCCO)nc21 [OLOMOUCINE]	0
O=c1sn(Cc2ccccc2)c(=S)n1Cc1ccccc1	-0.3
O=C1NC(=O)c2c1c1c3ccccc3[nH]c1n1cncc21 [ISOGRANULATIMIDE]	3.7
O=C(O)/C=C/c1cc(CO)ccc1CO	-0.1
CC(C)N(CCO)c1nc(Nc2cccc(Cl)c2)c2ncn(C(C)C)c2n1	0.3
CN[C@@H]1CC2O[C@@](C)([C@@H]1OC)n1c3ccccc3c3c4c(c5c6ccccc6n2c5c31)C(=O)NC4	6.6
C[S+]([O-])c1ccc(-c2nc(-c3ccc(F)cc3)c(-c3ccncc3)[nH]2)cc1 (stereo not given) [SB-203580]	-0.4
Ic1cccc(CSc2nnc(-c3ccncc3)o2)c1	-0.7
O=c1c(-c2ccc(F)cc2)c(-c2ccncc2)[nH]n1-c1ccc(Cl)cc1	0.4
O=C1Nc2cc(Br)ccc2/C1=C1/Nc2ccccc2/C1=N\O	1.5
NS(=O)(=O)c1ccc(Nc2nc(OCC3CCCCC3)c3nc[nH]c3n2)cc1	0.6
CSc1nc(-c2ccc(F)cc2)c(-c2ccnc(NC(C)c3ccccc3)c2)[nH]1 (racemic)	0.8
NC1=NC(=O)/C(=C2\CCNC(=O)c3[nH]c(Br)cc32)N1 [HYMENIALDISINE]	0.6
C[S+]([O-])c1ccc(CSc2nc(-c3ccc(F)cc3)c(-c3ccncc3)[nH]2)cc1 (stereo not given)	0.2

* * *

# Ki per entry
# TEST_TARGET: Calcium/calmodulin-dependent protein kinase kinase 2 (Homo sapiens)
# Sequence (Q96RR4 whole entry): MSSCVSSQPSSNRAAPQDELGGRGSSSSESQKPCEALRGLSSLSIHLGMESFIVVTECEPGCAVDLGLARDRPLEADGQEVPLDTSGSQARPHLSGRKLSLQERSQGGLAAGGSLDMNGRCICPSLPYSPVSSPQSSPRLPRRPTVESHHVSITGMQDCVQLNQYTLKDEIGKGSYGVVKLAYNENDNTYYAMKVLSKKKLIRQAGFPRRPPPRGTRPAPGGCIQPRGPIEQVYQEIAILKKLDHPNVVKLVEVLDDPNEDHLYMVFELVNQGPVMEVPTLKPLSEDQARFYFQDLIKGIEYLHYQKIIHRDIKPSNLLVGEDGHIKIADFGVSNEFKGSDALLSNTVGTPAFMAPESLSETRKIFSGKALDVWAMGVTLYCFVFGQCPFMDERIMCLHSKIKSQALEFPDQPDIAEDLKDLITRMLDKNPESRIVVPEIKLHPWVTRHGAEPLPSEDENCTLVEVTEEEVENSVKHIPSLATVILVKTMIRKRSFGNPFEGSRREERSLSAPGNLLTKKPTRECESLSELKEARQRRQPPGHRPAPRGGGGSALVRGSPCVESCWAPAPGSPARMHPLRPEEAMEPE
# ASSAY_NOTES: Inhibition of CaM-KKbeta

MOLECULE	QUANTITY_UNIT	Ki
O=S(=O)(NCCNC/C=C/c1ccc(Br)cc1)c1cccc2cnccc12	µM	29.7
N=C(N)NCCNS(=O)(=O)c1cccc2cnccc12	µM	13

* * *

Target or system Serine/threonine-protein kinase 26 (Homo sapiens): recorded ΔTm listed per item.
MEASURED_PROPERTY: ΔTm (°C)

COMPOUND	TEST_TARGET	RESULT_NUMBER
CC(C)N(CCO)c1nc(Nc2cccc(Cl)c2)c2ncn(C(C)C)c2n1	Serine/threonine-protein kinase 26 (Homo sapiens)	2.8
CCCNC(=O)Nc1ccc(Oc2ncnc3cc(OC)c(OC)cc23)cc1Cl [KRN-633]	Serine/threonine-protein kinase 26 (Homo sapiens)	1.2
O=C(Nc1cccc(Nc2nccc(Nc3cccc(C(F)(F)F)c3)n2)c1)C1CC1 [ANILINOPYRIMIDINE1]	Serine/threonine-protein kinase 26 (Homo sapiens)	1.5
COc1cc(/C=C/C(=O)CC(=O)/C=C/c2ccc(O)c(OC)c2)ccc1O [CURCUMIN]	Serine/threonine-protein kinase 26 (Homo sapiens)	1.7
Nc1nc(Nc2ccc(S(N)(=O)=O)cc2)nn1C(=S)Nc1c(F)cccc1F	Serine/threonine-protein kinase 26 (Homo sapiens)	11.1
NC1=NC(=O)/C(=C2\CCNC(=O)c3[nH]c(Br)cc32)N1 [HYMENIALDISINE]	Serine/threonine-protein kinase 26 (Homo sapiens)	4
COc1ccc(S(=O)(=O)N(CCO)c2ccccc2CN(C)C/C=C/c2ccc(Cl)cc2)cc1	Serine/threonine-protein kinase 26 (Homo sapiens)	0.1
COC(=O)[C@]1(O)C[C@@H]2O[C@@]1(C)n1c3ccccc3c3c4c(c5c6ccccc6n2c5c31)C(=O)NC4 (single isomer, unassigned)	Serine/threonine-protein kinase 26 (Homo sapiens)	3
